- measured.target: FGFR1 (UniProt P11362)
- Sequence (P11362 whole entry, looked up): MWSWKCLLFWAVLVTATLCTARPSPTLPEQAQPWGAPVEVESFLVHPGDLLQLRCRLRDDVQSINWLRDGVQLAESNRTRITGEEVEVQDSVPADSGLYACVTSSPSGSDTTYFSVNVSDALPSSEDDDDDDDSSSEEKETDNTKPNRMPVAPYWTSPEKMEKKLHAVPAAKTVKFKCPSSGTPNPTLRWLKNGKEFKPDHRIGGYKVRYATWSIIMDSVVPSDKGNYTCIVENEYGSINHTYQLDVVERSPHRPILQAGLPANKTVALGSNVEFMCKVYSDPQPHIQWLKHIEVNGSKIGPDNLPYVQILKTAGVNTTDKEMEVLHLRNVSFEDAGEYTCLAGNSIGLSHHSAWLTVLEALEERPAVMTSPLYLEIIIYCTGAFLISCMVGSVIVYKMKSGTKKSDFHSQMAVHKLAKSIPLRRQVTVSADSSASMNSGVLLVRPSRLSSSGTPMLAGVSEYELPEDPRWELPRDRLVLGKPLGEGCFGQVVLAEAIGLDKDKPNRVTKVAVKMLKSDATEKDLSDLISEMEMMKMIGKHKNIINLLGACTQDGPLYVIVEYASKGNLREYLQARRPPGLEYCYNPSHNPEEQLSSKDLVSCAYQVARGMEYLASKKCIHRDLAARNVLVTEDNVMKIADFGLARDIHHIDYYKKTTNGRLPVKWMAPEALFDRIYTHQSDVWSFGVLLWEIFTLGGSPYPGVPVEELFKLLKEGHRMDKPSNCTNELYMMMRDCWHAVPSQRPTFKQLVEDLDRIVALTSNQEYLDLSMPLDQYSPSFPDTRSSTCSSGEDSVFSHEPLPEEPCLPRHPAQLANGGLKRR
- assay.text: phosphorylation enrichment, bacterial display (enrichment ratio); higher = better substrate or ligand; peptides without Tyr show the background
Parameter: phosphorylation enrichment. Scope: all listed entries.
// print number alone

# count of solved cases: 3
• CDTKLYTSVPN [DNTTIP2_Y427_A430V] = 0.62
• QGIFGYHHHMQ [UFSP2_Y287_Y290H_YF] = 0.892
• GHGRFYMKEAI [PGM1_Y66_D62H] = 0.384

Entry under test: RASSSYRETPS [SORBS1_Y79] . Its phosphorylation enrichment was 0.611

* * *

- measured.target: SHP2-C SH2
- assay.text: SH2 binding enrichment of the phosphorylated peptide, bacterial display (enrichment ratio); higher = better substrate or ligand; peptides without Tyr show the background
Parameter: SH2 binding enrichment. Scope: all listed entries.

# count of solved cases: 2
• NKYTTYLPWLP [C9orf24_Y126_R129W] = 1.01
• FEHVGYTTLNR [CHN1_Y148_YF] = 18.8

Entry under test: KPLMPYMRYSR [SMARCE1_Y73] . Its SH2 binding enrichment was 0.609

Entry under test: RPSRWYQFRVA [ANOS1_Y259] . Its SH2 binding enrichment was 0.568

Entry under test: NSRFTCKLEVK [USH2A_Y3747_Y3747C_YF] . Its SH2 binding enrichment was 0.612

Entry under test: VQNIVYHTASI [CYP39A1_Y102_R103H] . Its SH2 binding enrichment was 4.37

Entry under test: HSQEDYFECFQ [ZIM2_Y411] . Its SH2 binding enrichment was 0.6

* * *

- measured.target: Fes (UniProt P07332)
- Sequence (P07332 whole entry, looked up): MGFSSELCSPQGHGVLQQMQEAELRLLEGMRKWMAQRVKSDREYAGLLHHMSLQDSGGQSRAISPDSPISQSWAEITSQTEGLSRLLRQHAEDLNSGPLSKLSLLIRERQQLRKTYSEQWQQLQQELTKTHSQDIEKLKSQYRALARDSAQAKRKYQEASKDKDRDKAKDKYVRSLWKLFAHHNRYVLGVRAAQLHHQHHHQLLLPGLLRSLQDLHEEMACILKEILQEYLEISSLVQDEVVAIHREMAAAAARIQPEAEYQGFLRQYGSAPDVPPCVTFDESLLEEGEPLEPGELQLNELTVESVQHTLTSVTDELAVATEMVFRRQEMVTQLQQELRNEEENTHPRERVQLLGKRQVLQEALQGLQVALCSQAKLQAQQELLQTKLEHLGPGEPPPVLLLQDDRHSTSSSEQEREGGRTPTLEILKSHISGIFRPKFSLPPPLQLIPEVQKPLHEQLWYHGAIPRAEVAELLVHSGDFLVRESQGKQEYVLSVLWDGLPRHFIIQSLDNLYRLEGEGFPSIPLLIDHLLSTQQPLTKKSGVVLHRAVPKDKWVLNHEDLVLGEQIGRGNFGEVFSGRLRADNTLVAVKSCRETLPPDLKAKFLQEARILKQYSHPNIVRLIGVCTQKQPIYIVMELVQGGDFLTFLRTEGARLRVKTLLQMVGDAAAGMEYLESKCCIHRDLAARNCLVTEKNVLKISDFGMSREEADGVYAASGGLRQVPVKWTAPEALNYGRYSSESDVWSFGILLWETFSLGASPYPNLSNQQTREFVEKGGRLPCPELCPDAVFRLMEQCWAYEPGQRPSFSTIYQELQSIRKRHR
- assay.text: phosphorylation enrichment, bacterial display (enrichment ratio); higher = better substrate or ligand; peptides without Tyr show the background
Parameter: phosphorylation enrichment. Scope: all listed entries.
// print number alone

# count of solved cases: 5
• GGTPLYMDRQG [AGXT_Y194] = 0.614
• EMQAAYQKVVA [HBD_Y131_Q126E] = 0.656
• FRDALYKSMVD [PHEX_Y250_F252S_YF] = 0.97
• RLDRSYSFSFS [PEAR1_Y890_YF] = 0.984
• CPASVYTKRCS [CPT2_Y508_R503C] = 0.549

Entry under test: FFSSEYHCVGG [CTSC_Y345_Y347C_YF] . Its phosphorylation enrichment was 1.17

Entry under test: MEVGQYIFVKC [CYBB_Y324] . Its phosphorylation enrichment was 1.53

Entry under test: ETDSEYVKLSK [C7orf57_Y70_A74S] . Its phosphorylation enrichment was 1.13

Entry under test: NTYEKYWLFYQ [GATM_Y103_P105L] . Its phosphorylation enrichment was 1.39

Entry under test: NNIDYYKKTTN [FGFR2_Y657] . Its phosphorylation enrichment was 0.703

Entry under test: CEAMEYLESKQ [BTK_Y511] . Its phosphorylation enrichment was 1.95

Entry under test: VHNLDYFKQTT [FGFR3_Y647_K650Q_YF] . Its phosphorylation enrichment was 0.958

Entry under test: KILTHYKQPHT [KMT2D_Y5349_R5351Q] . Its phosphorylation enrichment was 0.565

* * *

- measured.target: SHP2-C SH2;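 also: peptide library displayed on the E. coli surface as eCPX fusions, selected cells deep-sequenced, score is each peptide's frequency after selection divided by its frequency in the input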
- assay.text: SH2 binding enrichment of the phosphorylated peptide, bacterial display (enrichment ratio); higher = better substrate or ligand; peptides without Tyr show the background
experimental.readout: SH2 binding enrichment

Entry under test: KFVVVYFRETD [IL17RB_Y447_I451T_YF] . Its SH2 binding enrichment was 1.55

Entry under test: CPSLPYSPVSS [CAMKK2_Y128] . Its SH2 binding enrichment was 0.855

Entry under test: IETGRYEILTE . Its SH2 binding enrichment was 0.697

src = the supplement of paper PMC10065799
